System: A498 renal
Assay: NCI-60 one-dose screen, 48 h (100 = growth as untreated, 0 = no growth, -100 = all killed)
Conditions: 10 µM unless noted
The panel holds about 83,000 compounds, 20% with a hit somewhere; the sample as a whole holds those more often.
Classes (growth): bottom (below 60%), middle (60% to below 80%), top (80% or more)

Known results for molecules:
1. COc1ccc2c(c1)c(-c1noc(C(=O)c3cn(C)c4ncc(Br)cc34)n1)cn2C    bottom
2. CCn1cc(-c2ccnc(NCCNS(=O)(=O)c3ccc(Br)cc3)c2)c(-c2cccc(OC)c2)n1    middle
3. Cc1cc(SC#N)ncn1    top
4. COc1ncc(-c2ccc3nc(N)n(-c4ccccc4C(F)(F)F)c(=O)c3c2)cc1S(=O)(=O)Nc1ccc(F)cc1F    bottom
5. COCc1nc2ccccc2[nH]1    top
6. C=C(C)C1CCC2(C(=O)O)CCC3(C)C(CCC4C5(C)CCC(OC(=O)NCc6ccccc6)C(C)(C)C5CCC43C)C12 (stereo unspecified)    bottom
7. CCCN1CC(c2ccc(OC)c(OC)c2)=C(c2cn(C(=O)OCC)c3ccccc23)C1=O    bottom
8. CC1Cc2c(Cl)ncnc2N(C)c2ccc(Cl)cc21 (stereo unspecified)    bottom
9. CCN(CC)CCCOc1ccc2c(c1)O/C(=C\c1cccc(OC)c1)C2=O    middle
10. O=C(O)CSCc1nnc2n(Cc3ccccc3)c(=O)c3c4c(sc3n12)CCCC4    top

Task: Consider "Cc1ncc(C(=O)Nc2ccc(CN3CCN(C)CC3)c(C(F)(F)F)c2)cc1C#Cc1c(N)ncc2ccc(C#N)cc12" . To which growth class does it belong?
Output: bottom

Task: Entry to check: "O=S(=O)(NCc1ccccc1)c1ncnc2nc[nH]c12"
Output: top

Task: Now give it for "CC1(C)C(=NO)C(C)(C)C1=NO" too.
Output: top

Task: Further, for "COc1cccc(-c2[nH]c(=S)ncc2C(=O)c2ccccc2)c1" ?
Output: middle
